Test method notes: protein stability index of a GFP-peptide fusion (GPS, HEK-293T) (PSI 1-6); higher = more stable;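 further: 24-mer peptide tiles fused after GFP, lentivirally expressed, FACS-sorted into six equal bins by GFP/DsRed ratio, decoded by Illumina sequencing, PSI is the read-weighted mean bin number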
Condition summary: treatment: DMSO; c terminus: a fixed tail appended
Observation type: protein stability index
Lab note: record the figure alone, no unit after it.

The following sequences have reported results that may help.
Residue string	Observation type	Quantitative result
LPMWSNQTWNNSTWSNQTQNIQSW [NANOGP8]	protein stability index	2.45
ERLASANLRVLVDCILRDTSEDLR [TEKT4]	protein stability index	2.21

Q: Which protein stability index is reported for this sequence? LHSHRHLYPEGIGARQQQVTTYLH [POMT2]
Ans: 2.76

Q: Returns the measured protein stability index for the input sequence. Input: LTRRLAHGEELRVSARSREGRGGR [HAGHL]
Ans: 4.87

Q: Give its protein stability index value. Item: YFYPRGGGSGGGAGGAGGGVTEEQ [JUNB]
Ans: 5.01

Q: Would you mind telling me what protein stability index value was observed for RGPVVPKHSTFGQSLTQRLHALKL [GNAS] ?
Ans: 2.4

Q: Return reported protein stability index; argument: EVPLEVLRQRESKWLDMLNNWDKW [TBC1D10A]
Ans: 2.8

###

Test method notes: protein stability index of a GFP-peptide fusion (GPS, HEK-293T) (PSI 1-6); higher = more stable
Condition summary: treatment: MLN4924 1 uM, 8 h; c terminus: native
Observation type: protein stability index
Just the number.

Known results for sequences:
Residue string	protein stability index
GSGADSEPARHIFSFSWLNSLNE [TRIM55]	3.53
YFSTPQTMDLFLNYSMNMQPEDV [NANOGP8]	2.27
REKIMKLPLPESLKAYLTYFRDK [PCMTD1]	2.59

Q: // lookup protein stability index for PPKSVNPTCMCCQATSSTACHIQ [FAM219A]
Ans: 3.07

###

Examples of sequences with documented protein stability index follow.
Test method notes: protein stability index of a GFP-peptide fusion (GPS, HEK-293T) (PSI 1-6); higher = more stable
Condition summary: treatment: DMSO; c terminus: a fixed tail appended
Just the number, please, no unit after it.

Guide cases for protein stability index, answers given:
Residue string	Observation type	Quantitative result
QEPDFIDDIEEKTPISNEVEMESE [KMT2E]	protein stability index	5.24
KARSYSYPHCTGISQQDPESDSQG [ZC2HC1C]	protein stability index	5.28
KFKGWVSYSTSEQAELSYKKVSEG [DLC1]	protein stability index	3.52
NLISPVRNGAVRRFGQTIQSFTLR [NET1]	protein stability index	2.65
TNMARIREIMEKFGKQPVSLPARR [CPXM2]	protein stability index	2.72

Q: Requested read-out: protein stability index. Entry: EEENAQLRGALQQGEAFQRALESE [PBXIP1]
Ans: 5.43

Q: Could you tell me which protein stability index is on file for HKSAFNDWFSGHLNFQIEHHLFPT [FADS1] ?
Ans: 2.11

Q: So what does the record say about protein stability index for HSVTGFLCEPDPVHFSEAIEKFIR [ALG2] ?
Ans: 2.8

Q: For the sequence shown here, DPLPAAAVGAAAEAEADEEADPPA [SNX8] , give the reported protein stability index.
Ans: 5.59

Q: For SDSLLTGMAFFKMREMFFEDHIDD [CNOT7] , what is its reported protein stability index?
Ans: 2.58

Q: Reported protein stability index, sequence KEASRHAIMRSPQMVSAIVRTMQN [CTNNB1] : ____
Ans: 3.15

Q: Item GGRDFSAPLTISRVHAGSKAALAA [PDLIM4] has what recorded protein stability index?
Ans: 3.59

Q: So what's the measured protein stability index for this one? IGIPLFFLELAVGQRIRRGSIGVW [SLC6A17]
Ans: 2.51

Q: Which protein stability index value is on record for PYTELRKQPLRKYVTPSDFDQLKQ [EFHC1] ?
Ans: 3.57

Q: Fill blank: measured protein stability index of the sequence RGEAEAFAIGARARAEAEQMAKKA [FLOT1] is ____.
Ans: 5.33

Q: Given the sequence TREKAKFSDGEKCRREAFRRLGNG [PHTF1] , what is its reported protein stability index?
Ans: 3.65
